// reported Ki for each item listed
# TARGET_OF_ASSAY: extracted human amyloid-beta aggregates (Homo sapiens, UniProt P05067)
# Construct: from tissue; host or cells: human AD brain, occipital cortex
# Sequence (P05067 672-713 limits assumed): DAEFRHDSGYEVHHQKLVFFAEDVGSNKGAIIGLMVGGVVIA
# MEASUREMENT_DESCRIPTION: Competitive radioligand binding assay with [3H]-AV-45 on amyloid plaque preps from human AD brain
# EXPERIMENTAL_CONDITIONS: calculated from IC50, KD Aβ 7.85 nM for 3H-AV45, 10 nM RL
MEASURE: Ki

# MOL_SMILES, RESULT_VALUE
data = [
    ("Cc1cnccc1Nc1ccc2nc(F)ccc2n1", "> 4.4 µM"),
    ("Cc1cc(Nc2ccc3nc(F)ccc3n2)ccn1", "> 4.4 µM"),
    ("Fc1ccc2nc(Nc3ccncc3)ccc2n1", "> 4.4 µM"),
]

Data credit: patent US20190038784A1
